# test: in vivo
# stated-conditions: rat, sc, 3 mg/kg
measurement-type: concentration at 48 h (ng/mL)

query-smiles: [2H]c1c([2H])c(OC([2H])([2H])C([2H])([2H])C([2H])([2H])N2CC[C@H]3[C@@H](C2)c2cccc4c2N3C([2H])([2H])C(=O)N4)c([2H])c([2H])c1F
concentration at 48 h (ng/mL): 2.4
//
query-smiles: [2H]C([2H])(Oc1ccc(F)cc1)C([2H])([2H])C([2H])([2H])N1CC[C@H]2[C@@H](C1)c1cccc3c1N2CC(=O)N3
concentration at 48 h (ng/mL): 2
